protocol: HepG2 liver cancer cell viability effects, profiling panel, resazurin fluorescence, 24 h, PK04 Diversity Set (AID 1172); also: test concentration not given here
condition.details: higher = more signal
Where z-score equals or exceeds 0.4, the correct label is fulfilled; where it does not, the label is not fulfilled.

COc1ccc([Si](C)(C)[C@H]2[C@H](CC(=O)N3Cc4ccccc4C[C@H]3CO)O[C@@]3(C(=O)N(Cc4cccc(N5C(=O)COc6ccccc65)c4)c4ccccc43)[C@@H]2C)cc1 : not fulfilled
NC(=O)NCC#Cc1ccc2c(c1)[C@]1(C(=O)N2)[C@H](c2ccc(OCCO)cc2)N2[C@H](c3ccccc3)[C@H](c3ccccc3)OC(=O)[C@H]2[C@@H]1C(=O)Nc1nc2ccccc2s1 : not fulfilled
CC(C)(C)OC(=O)CC[C@]1(C(=O)NCc2ccccc2)COC(c2ccc(OCCCO)cc2)=N1 : fulfilled
CN1C=C(C(=O)OCCS(C)(=O)=O)C(C(=O)OCCS(C)(=O)=O)=CC(CCCO)=CC1c1cccs1 (stereo not drawn) : fulfilled

q: Check if z-score >= 0.4 (inclusive). Item: `COc1ccc([Si](C)(C)[C@@H]2[C@@H](CC(=O)N3CCC[C@H]3CO)O[C@]3(C(=O)N(Cc4ccc(I)cc4)c4ccccc43)[C@H]2C)cc1`
a: not fulfilled

q: And `C=CCN1C(=O)[C@@]2(O[C@@H](CCn3cc(CCO)nn3)[C@H]([Si](C)(C)c3ccc(OC)cc3)[C@H]2C)c2cc(N3C(=O)c4cccc5cccc3c45)ccc21` ?
a: not fulfilled

q: And `C=CC[C@@H](OC(=O)Nc1ccc(SC)cc1)c1ccc(OCCO)cc1` ?
a: fulfilled

---

protocol: cell viability in Huh7 cells, primary screen, cytotoxicity control for HCV replication inhibitor project, CellTiter-Glo luminescence, basal, 48 h (AID 1143);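 also: Huh7 hepatoma cells carrying a hepatitis C replication reporter with no stimulus; test concentration not given here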
condition.details: Huh7 HCV replicon, higher = more signal, called active from +8 up or from −8 down
measured.parameter: z-score
Give bare numbers.

CC(C)(C)OC(=O)CC[C@@]12N=C(c3ccc(OCCCO)cc3)O[C@@H]1c1ccccc1N(Cc1ccccc1)C2=O : -4.37
C=C(COC)C(=O)CC[C@@H](OC(=O)c1ccccc1-c1ccccc1C(=O)O)c1cccc(OCCO)c1 : 0.483
[N-]=[N+]=NCc1ccccc1C[C@]1(C(=O)NCc2ccccc2)N=C(c2ccc(OCCCO)cc2)O[C@H]1c1ccccc1 : -4.02
O=C1c2ccccc2[C@](Cc2ccccc2I)(C(=O)O)[C@H](c2ccc(CO)cc2)N1Cc1ccccc1Cl : -1.86
O=C(NCC(F)(F)F)[C@@H]1c2ccccc2C(=O)N(C2Cc3ccccc3C2)[C@H]1c1ccc(CO)cc1 : -1.11

Report z-score for every entry below.
1. COCCOC(=O)N1C(=O)[C@@]2(c3cc(C#CCCO)ccc31)[C@H](c1ccccc1OCCO)N1[C@H](c3ccccc3)[C@H](c3ccccc3)OC(=O)[C@H]1[C@@H]2C(=O)NC[C@H](O)c1ccccc1
2. O=C(O)[C@H]1C[C@H]2C(=O)N[C@@H](Cc3ccccc3)C(=O)N2[C@H]1c1ccc(O)cc1
3. C=CC[C@]1(C(=O)N2CCCCC2)COC(c2ccc(OCCCO)cc2)=N1
4. COc1ccc([Si](C)(C)[C@@H]2[C@@H](CC(=O)N3CCC[C@H]3CO)O[C@]3(C(=O)N(Cc4ccc(N5CCC5=O)cc4)c4ccccc43)[C@H]2C)cc1
5. O=C1c2ccccc2C(=O)c2cc([C@H]3Oc4ccccc4S(=O)(=O)N4CCC[C@@H]34)ccc21
6. CC(C)C[C@@H]1NC(=O)[C@@]23C(=O)N[C@@H](Cc4ccccc4)C2[C@H](C)[C@@]2(C)O[C@H]2C3/C=C/C/C=C\CNC(=O)[C@H](Cc2ccccc2)NC1=O (stereo not given in full)
7. COc1ccc([Si](C)(C)[C@@H]2[C@@H](CCn3cc([C@H](O)c4ccccc4)nn3)O[C@]3(C(=O)N(C)c4c(Br)cc(C)cc43)[C@H]2C)cc1
8. CCOC(=O)C[C@H]1[C@H](OC(=O)c2ccc(-c3ccccc3)cc2)[C@@H](NC(=O)c2ccccc2)c2cc(OCCCO)ccc2N1C(=O)c1ccccc1

a:
1. -4.1
2. -0.423
3. -4.06
4. -1.8
5. -4.31
6. -4.13
7. -6.27
8. -2.94

Report z-score for every entry below.
1. NCCCCCNC(=O)[C@H]1C[C@H]2C(=O)NCC(=O)N2[C@H]1c1ccc(O)cc1
2. O=C(N1CCCCC1)[C@@]1(Cc2ccccc2)N=C(c2ccc(OCCCO)cc2)O[C@H]1c1ccccc1

a:
[-0.108, -5.07]
